PROCEDURE_TEXT: Plasma pharmacokinetics after oral Posiphen in Sprague Dawley rats (LC-MS/MS)
Type: in vivo, rat
DETAILS: both sexes, Sprague Dawley, rat, in vivo, 40 mg/kg
OBSERVATION_TYPE: concentration at 0.25 h (µg/mL)
Numbers only, in µg/mL.

Please report the measured concentration at 0.25 h for CN1CC[C@]2(C)c3cc(OC(=O)Nc4ccccc4)ccc3N(C)C12.O=C(O)C(O)C(O)C(=O)O (stereo partly shown)
1.09

====

PROCEDURE_TEXT: clinical
Type: in vivo, human
DETAILS: human, in vivo, po, 1.1 mg/kg, human plasma, Posiphen PO 80 mg/day (1.1 mg/kg), n = 4; read-out: Tmax
OBSERVATION_TYPE: Tmax

Recall and state the measured Tmax for CN1CC[C@]2(C)c3cc(OC(=O)Nc4ccccc4)ccc3N(C)C12.O=C(O)C(O)C(O)C(=O)O (stereo partly shown) [Posiphen] .
1 to 2 h

====

PROCEDURE_TEXT: Plasma pharmacokinetics after oral Posiphen in CD-1 mice (LC-MS/MS)
DETAILS: both, CD-1, mouse, in vivo, 65 mg/kg
Please respond with reported concentration at 1.25 h for every item in the list.
Numbers only, in ng/mL.

CN1CC[C@]2(C)c3cc(OC(=O)Nc4ccccc4)ccc3NC12 (some centres unmarked) [N8, N8-norposiphen] | 1790

Indicate its recorded concentration at 1.25 h; the compound in question is CN1c2ccc(OC(=O)Nc3ccccc3)cc2[C@@]2(C)CCNC12 (some centres unmarked) [N1, N1-norposiphen]
554

====

PROCEDURE_TEXT: clinical
Format: in vivo, human
DETAILS: human, in vivo, po, 1.1 mg/kg; read-out: AUC (0–8 h)
OBSERVATION_TYPE: AUC(0-t) (ng·h/mL)
One number for each entry, in ng·h/mL.

Respond only with AUC(0-t) recorded for CN1CC[C@]2(C)c3cc(OC(=O)Nc4ccccc4)ccc3N(C)C12.O=C(O)C(O)C(O)C(=O)O (stereo partly shown)
310

====

PROCEDURE_TEXT: Plasma pharmacokinetics after oral Posiphen in CD-1 mice (LC-MS/MS)
DETAILS: both, CD-1, mouse, in vivo, 65 mg/kg
OBSERVATION_TYPE: concentration at 0.5 h (ng/mL)
One number for each entry, in ng/mL.

CN1c2ccc(OC(=O)Nc3ccccc3)cc2[C@@]2(C)CCNC12 (some centres unmarked) | 484

Okay, next one:
For the molecule CN1CC[C@]2(C)c3cc(OC(=O)Nc4ccccc4)ccc3NC12 (some centres unmarked) , give its measured concentration at 0.5 h value.
1310

====

PROCEDURE_TEXT: in vivo
Parameters: species or system dog
DETAILS: both sexes, Beagle, dog, in vivo, po, 20 mg/kg, dog plasma, Posiphen PO 20 mg/kg, n = 12; read-out: Tmax
Description: In rats and dogs, blood samples were centrifuged, and the resultant plasma was separated, and 200 µL (rat) or 400 µL (dog) of plasma was transferred to uniquely labeled pre-chilled polypropylene tubes containing 5 µL (rat) or 10 µL (dog) Dichlorvos spiking solution (nominal concentration of 0.82 mg/mL in MeOH/Water, 20/80, v/v). The detection limit was 0.025 ng/mL.
OBSERVATION_TYPE: Tmax

Supply Tmax value. Item: CN1CC[C@]2(C)c3cc(OC(=O)Nc4ccccc4)ccc3N(C)C12.O=C(O)C(O)C(O)C(=O)O (stereo partly shown) [Posiphen]
1 to 2 h
